Value source: patent US11426371B2

# Tested on: KG1a
# procedure.text: Cell viability, panel of AML cell lines
# Type: cell-based
# condition.label: Homo sapiens, KG-1a; KG1a cells, 24 h; read-out: EC50 24 h
measurement.kind: pEC50
Please report pEC50 as the negative decimal logarithm of the molar concentration, giving only the number.

# pEC50 (molecule: CCCCCCCCCCCCCCC[C@@H](O)[C@H](CO)NC(=O)CCl [SACLAC] ) is 5.25

---

# Tested on: HL60
# procedure.text: Cell viability, panel of AML cell lines
# Assay type: cell-based
# condition.label: Homo sapiens, HL-60; HL60 cells, 24 h; read-out: EC50 24 h
measurement.kind: EC50 (nM)
Form entry: value (nM) — number only.

# EC50 (compound: CCCCCCCCCCCCCCC[C@@H](O)[C@H](CO)NC(=O)CCl ) is 1800

---

# Test system: HEL
# procedure.text: Cell viability, panel of AML cell lines
# Format: cell-based
# condition.label: Homo sapiens; HEL cells, 24 h; read-out: EC50 24 h
# Method: Representative human AML cell lines (FIG. 2A; upper and lower panels) HL60/VCR and (FIG. 2B; upper and lower panels) OCI-AML2 were treated with SACLAC for 24 and 48 hours. Viability was assessed by MTS assay at 24 and 48 hours and apoptosis was assessed by flow cytometry at 48 hours. Upper panels represent % viability and lower panels indicate % apoptosis. Two representative human-derived AML cell lines, HL60/VCR and OCI-AML2, are shown. […]
measurement.kind: EC50 (nM)
Form entry: value (nM) — number only.

# EC50 (compound: CCCCCCCCCCCCCCC[C@@H](O)[C@H](CO)NC(=O)CCl [SACLAC] ) is 1200

---

# Tested on: MOLM-14
# procedure.text: Cell viability, panel of AML cell lines
# Format: cell-based
# condition.label: Homo sapiens; MOLM-14 cells, 24 h; read-out: EC50 24 h
measurement.kind: EC50 (nM)
Form entry: value (nM) — number only.

# EC50 (compound: CCCCCCCCCCCCCCC[C@@H](O)[C@H](CO)NC(=O)CCl ) is 500

---

# Tested on: Human AML cell lines (n = 30)
# procedure.text: Cell viability, average over the panel of AML cell lines
# Format: cell-based
# condition.label: mean over 30 human AML cell lines, 24 h; read-out: EC50 24 h, Average
measurement.kind: pEC50
Please report pEC50 as the negative decimal logarithm of the molar concentration, giving only the number.

# pEC50 (molecule: CCCCCCCCCCCCCCC[C@@H](O)[C@H](CO)NC(=O)CCl [SACLAC] ) is 5.64

---

# Tested on: NB4
# procedure.text: Cell viability, panel of AML cell lines
# Assay type: cell-based
# condition.label: Homo sapiens, NB-4; NB4 cells, 24 h; read-out: EC50 24 h
measurement.kind: EC50 (nM)
Form entry: value (nM) — number only.

Value sought: EC50, system NB4, item CCCCCCCCCCCCCCC[C@@H](O)[C@H](CO)NC(=O)CCl . Result: 200

---

# System: normal samples (PBMCs and/or CD34+ cells)
# procedure.text: Viability of normal samples, MTS and Cell Titer Glo (FIG. 4, Table 2)
# Assay type: cell-based
# condition.label: PBMC, 24 h, normal controls at 24 h, mean ± spread; read-out: EC50, normal controls
measurement.kind: pEC50
Please report pEC50 as the negative decimal logarithm of the molar concentration, giving only the number.

# pEC50 (molecule: CCCCCCCCCCCCCCC[C@@H](O)[C@H](CO)NC(=O)CCl ) is 4.87
